Value source: ChEMBL document CHEMBL3991601

molecular target: AP2-associated protein kinase 1 (Homo sapiens); further: in the data inactive means no Kd found up to 30 µM
Sequence (Q2M2I8 whole entry): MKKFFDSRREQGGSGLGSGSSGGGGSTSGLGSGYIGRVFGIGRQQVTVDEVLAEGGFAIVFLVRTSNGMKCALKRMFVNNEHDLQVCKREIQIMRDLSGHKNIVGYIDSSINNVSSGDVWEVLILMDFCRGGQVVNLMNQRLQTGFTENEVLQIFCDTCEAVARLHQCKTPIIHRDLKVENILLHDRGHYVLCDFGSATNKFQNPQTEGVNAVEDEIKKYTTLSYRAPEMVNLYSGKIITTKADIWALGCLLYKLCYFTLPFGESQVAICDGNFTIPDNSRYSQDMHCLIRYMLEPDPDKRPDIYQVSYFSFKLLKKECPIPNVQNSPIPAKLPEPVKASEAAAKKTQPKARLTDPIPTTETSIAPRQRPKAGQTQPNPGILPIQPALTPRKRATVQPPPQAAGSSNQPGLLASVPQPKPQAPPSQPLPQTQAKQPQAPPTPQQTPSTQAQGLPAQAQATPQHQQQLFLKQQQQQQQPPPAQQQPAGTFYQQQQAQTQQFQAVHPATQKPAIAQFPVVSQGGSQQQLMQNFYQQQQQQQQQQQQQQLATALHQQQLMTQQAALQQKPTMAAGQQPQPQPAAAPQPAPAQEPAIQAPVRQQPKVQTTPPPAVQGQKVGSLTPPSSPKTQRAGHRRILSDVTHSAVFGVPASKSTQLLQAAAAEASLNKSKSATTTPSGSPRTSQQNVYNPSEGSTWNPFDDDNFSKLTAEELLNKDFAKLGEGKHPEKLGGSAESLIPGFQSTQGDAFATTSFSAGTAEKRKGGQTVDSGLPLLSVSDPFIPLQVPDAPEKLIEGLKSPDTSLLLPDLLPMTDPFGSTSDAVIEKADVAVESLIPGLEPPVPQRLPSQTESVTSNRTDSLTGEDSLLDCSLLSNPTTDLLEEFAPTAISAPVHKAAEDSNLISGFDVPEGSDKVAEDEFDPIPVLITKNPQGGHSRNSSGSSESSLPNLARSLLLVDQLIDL
Activity calls are given as the source filed them.
Outcomes you can answer with include only these: yes (1) (active), no (0) (inactive)

Ask: Could you kindly confirm the outcome this assay logged for COCCN1CCN(Cc2ccc(-c3n[nH]c4c3C(=O)c3c(NC(=O)NN5CCOCC5)cccc3-4)cc2)CC1 [RGB-286638] ?
Reply: yes (1)

Ask: Record request — test call for O=C(Nc1ccc(OC(F)(F)F)cc1)c1sccc1NCc1ccnc2ccccc12 [OSI-930]
Reply: no (0)

Ask: For this compound, state the assay outcome: CCc1nc(C(N)=O)c(Nc2ccc(N3CCC(N4CCN(C)CC4)CC3)c(OC)c2)nc1NC1CCOCC1 [GILTERITINIB]
Reply: yes (1)

Ask: What classification did "O=c1[nH]c([C@@H]2CCCN2)nc2c1oc1ccc(Cl)cc12" end up with in this test?
Reply: no (0)
